Where do the numbers come from? From PubChem BioAssay (NCATS).

test: qHTS Assay for Lipid Storage Modulators (AID 1519); settings: Drosophila S3 cells, BODIPY lipid droplet/cell ratio, laser cytometry; measured here: lipid channel max response; cells loaded with oleic acid
Results filed as inconclusive are left out.
METRIC_NAME: max response (%)
# output: bare number, implied unit %

Exercise: Look up max response: `O=C(Nc1ccccc1)N1CC2(CCN(C(=O)c3cccc(F)c3)CC2)C1`
Solution: 20.2

Exercise: So what's the measured max response for this one? `CN1CC[C@@]2(CCCN(C(=O)c3cccc(F)c3)C2)C1`
Solution: 12.3

Exercise: Give the measured max response of `CN(C)c1ncc2nc(-c3cn(C)c4ccccc34)c(=O)n(C[C@H]3CCCO3)c2n1` .
Solution: 8.36

Exercise: Quick check: max response of `COc1ccccc1CN1CC[C@@]2(CCCN(C(=O)c3cccn3C)C2)C1` ?
Solution: 13.2

Exercise: Please report the recorded max response for `COCCn1c(=O)cnc2cnc(Nc3ccccc3)nc21` .
Solution: -12.1

Exercise: May I ask what max response has been recorded for `Cc1noc(C)c1C(=O)N1CCC[C@@]2(CCN(C(=O)NC(C)C)C2)C1` ?
Solution: 18.4

Exercise: Can you look up the measured max response of `CNc1ncncc1-c1c(C)noc1C` for me?
Solution: 45.6

Exercise: Recorded max response of `Cc1cnc(CNc2ccnc(-c3ccccc3CN(C)C)n2)cn1` , please.
Solution: 27.5

Exercise: Given the molecule `COc1ccc(-c2nc3cnc(Nc4cccc(OC)c4)nc3n(C3CC3)c2=O)cc1` , what is its reported max response?
Solution: 15

Exercise: So what does the record say about max response for `COc1ccc2[nH]cc(CCNc3ncncc3-c3c(C)noc3C)c2c1` ?
Solution: 18.3

Exercise: Please give the measured max response for this molecule: `COCC(=O)N1CCC[C@@]2(CCN(C(=O)Nc3cccc(C#N)c3)C2)C1`
Solution: 21.6

Exercise: What does the data say about its max response? Entry: `O=c1cnc2cncnc2n1Cc1ccc(F)cc1`
Solution: -6.15

Exercise: Quick one: max response for `COc1ccc(CNc2ncnc3ccc(-c4ccccc4CN(C)C)cc23)c(OC)c1` ?
Solution: 8.13

Exercise: # query: max response of entry `O=c1c(CCc2ccccc2)nc2cnc(N3CCOCC3)nc2n1Cc1cccs1`
Solution: 18.4

Exercise: Which value of max response has been reported for `COc1ccc(Oc2ncc3nc(C)c(=O)n(-c4ccccc4)c3n2)cc1` in the records?
Solution: 17.1

Exercise: # get_value(readout='max response', item= `O=S(=O)(c1ccccc1)N1CCC2(CCCN(c3ncccn3)C2)CC1` )
Solution: 5.88

Exercise: Could you tell me which max response is on file for `O=C(Nc1ccccc1)N1CCCC2(CCN(C(=O)c3cc(C(F)(F)F)cc(C(F)(F)F)c3)CC2)C1` ?
Solution: 17.1

Exercise: Which measured max response value corresponds to `CN(C)Cc1ccccc1-c1nc(N(C)C)c2ccccc2n1` ?
Solution: 6.7

Exercise: # get_value(readout='max response', item= `c1nc(N2CCNCC2)c2cc(-c3ccc4c(c3)OCO4)ccc2n1` )
Solution: 19.9

Exercise: Look up max response for this molecule: `CN(C)C(=O)c1ccc(-c2cncnc2NCCc2cnc[nH]2)cc1`
Solution: 30.3

Exercise: Requested read-out: max response. Entry: `Cc1cccc(CNc2ncnc3ccc(-c4ccc5c(c4)OCO5)cc23)c1`
Solution: -0.18

Exercise: Could you tell me which max response is on file for `Cc1noc(C)c1-c1nc(N2CCNCC2)c2ccccc2n1` ?
Solution: 19.2

Exercise: Reported max response for `CN1CCC2(CC1)CCN(C(=O)c1cc(C(F)(F)F)cc(C(F)(F)F)c1)CC2` : what is it?
Solution: -4.06

Exercise: max response for `CS(=O)(=O)N1CCC2(CC1)CN(c1cccc(-c3ccccc3)c1)C2` ?
Solution: -21

Exercise: Field request: max response | item: `CN(C)Cc1ccccc1-c1cc(N(C)Cc2ccco2)ncn1`
Solution: 23.3

Exercise: max response lookup needed for `CN1CCN(c2ncnc3ccc(-c4ccccc4Cl)cc23)CC1` , thanks.
Solution: -1.45

Exercise: Param item = `Cc1cnc(CNc2ncncc2-c2cccnc2)cn1` ; retrieve measured max response.
Solution: 33.4

Exercise: GET /values?readout=max response&item= `COc1ncc2nc(C)c(=O)n(C3CC3)c2n1`
Solution: 29.7

Exercise: Given the molecule `CN(Cc1ccco1)c1ncncc1-c1ccccc1Cl` , what is its reported max response?
Solution: 19.6

Exercise: Fill in the blank: the reported max response of `COc1ccc(NC(=O)N2CC[C@@]3(CCCN(C(=O)c4ccc(OC)cc4)C3)C2)cc1` is ____.
Solution: 26.4

Exercise: Which measured max response value corresponds to `CN(C)Cc1ccccc1-c1nc(NC2CCNCC2)c2ccccc2n1` ?
Solution: 7.24

Exercise: Query: max response; subject: `Cc1nc2cnc(N3CCNCC3)nc2n(Cc2cccs2)c1=O`
Solution: 28.9
